Experiment: The drug is tested on WLS-073 corresponding to human gut metagenome with ENA study accession number: PRJEB37062 and ENA sample accession number: ERS12561749 for biotransformation under anaerobic condition. The drug concentrations were measured over 9 timepoints collected between 0 and 24 hours of incubation by liquid-chromatography-coupled mass spectrometry (LC–MS); note: call rule not given here
Conditions: 2 µM

molecule	Bacterial Biotransformation
CCOC(=O)[C@H](CCc1ccccc1)N[C@@H](C)C(=O)N1[C@H](C(=O)O)C[C@@H]2CCC[C@@H]21	Compound metabolized
CN1C(=O)CCS(=O)(=O)C1c1ccc(Cl)cc1 (centres undefined)	Compound NOT metabolized
CC(C)NCC(O)COc1ccc(COCCOC(C)C)cc1.CC(C)NCC(O)COc1ccc(COCCOC(C)C)cc1.O=C(O)/C=C/C(=O)O (centres undefined) [BISOPROLOL FUMARATE]	Compound NOT metabolized
CN1CCN(CC/C=C2/c3ccccc3Sc3ccc(S(=O)(=O)N(C)C)cc32)CC1	Compound metabolized

* * *

Experiment: The drug is tested on Z-026 corresponding to metagenome with ENA study accession number: PRJEB37062 and ENA sample accession number: ERS12561825 for biotransformation under anaerobic condition. The drug concentrations were measured over 9 timepoints collected between 0 and 24 hours of incubation by liquid-chromatography-coupled mass spectrometry (LC–MS)
Details: 2 µM
value_type: Bacterial Biotransformation

molecule	Bacterial Biotransformation
CCc1nc(N)nc(N)c1-c1ccc(Cl)cc1	Compound NOT metabolized
CC(Oc1c(Cl)cccc1Cl)C1=NCCN1 (centres undefined)	Compound NOT metabolized
CC(C)(C(=O)O)c1ccc(C(O)CCCN2CCC(C(O)(c3ccccc3)c3ccccc3)CC2)cc1 (centres undefined) [FEXOFENADINE]	Compound NOT metabolized
Cc1ccc(S(=O)(=O)NC(=O)NN2CC3CCCC3C2)cc1 (centres undefined) [GLICLAZIDE]	Compound metabolized
CN1CCN(C2=Nc3cc(Cl)ccc3Nc3ccccc32)CC1	Compound NOT metabolized

Would you mind giving Bacterial Biotransformation for every molecule in the list below?
1. Cc1ccnc2c1NC(=O)c1cccnc1N2C1CC1
2. CC(=O)OCC(=O)[C@@]1(O)[C@@H](C)C[C@H]2[C@@H]3CCC4=CC(=O)C=C[C@]4(C)[C@@]3(F)[C@@H](O)C[C@@]21C [BETAMETHASONE ACETATE]
3. N#Cc1ccc(C(c2ccc(C#N)cc2)n2cncn2)cc1
4. Cc1ccc(S(=O)(=O)NC(=O)NN2CCCCCC2)cc1 [TOLAZAMIDE]

Compound NOT metabolized
Compound metabolized
Compound metabolized
Compound NOT metabolized

* * *

Conditions: human gut metagenome, 24 h, 2 µM
value_type: Bacterial Biotransformation

Worked set:
compound	Bacterial Biotransformation
O=c1n(CCCN2CCN(c3cccc(Cl)c3)CC2)nc2ccccn12	Compound NOT metabolized
CC[C@@H](CO)NC(=O)[C@@H]1C=C2c3cccc4c3c(cn4C)C[C@H]2N(C)C1.O=C(O)/C=C\C(=O)O [METHYSERGIDE MALEATE]	Compound NOT metabolized
COc1cc2c(c(OC)c1OC)-c1ccc(OC)c(=O)cc1[C@@H](NC(C)=O)CC2	Compound NOT metabolized
CCN(CC)CCOCCOC(=O)C1(c2ccccc2)CCCC1.O=C(O)CC(O)(CC(=O)O)C(=O)O [CARBETAPENTANE CITRATE]	Compound metabolized
COc1ccc2c3c1O[C@H]1C[C@@H](O)C=C[C@@]31CCN(C)C2	Compound NOT metabolized

Would you mind giving Bacterial Biotransformation for every compound in the list below?
1. CC(C)(C(=O)O)c1ccc(C(O)CCCN2CCC(C(O)(c3ccccc3)c3ccccc3)CC2)cc1 (configuration not stated) [FEXOFENADINE]
2. COc1ccc(CCN(C)CCCC(C#N)(c2ccc(OC)c(OC)c2)C(C)C)cc1OC (configuration not stated)
3. O=C(O)COCCN1CCN(C(c2ccccc2)c2ccc(Cl)cc2)CC1 (configuration not stated)
4. Cc1ccc(S(=O)(=O)NC(=O)NN2CC3CCCC3C2)cc1 (configuration not stated) [GLICLAZIDE]
5. CC(C)(C)NC[C@H](O)COc1ccccc1C1CCCC1.CC(C)(C)NC[C@H](O)COc1ccccc1C1CCCC1.O=S(=O)(O)O [PENBUTOLOL SULFATE]
6. OCCN1CCN(CCCN2c3ccccc3Sc3ccc(C(F)(F)F)cc32)CC1
7. Clc1ccc(Cn2c(CN3CCCC3)nc3ccccc32)cc1

1: Compound NOT metabolized; 2: Compound metabolized; 3: Compound metabolized; 4: Compound metabolized; 5: Compound metabolized; 6: Compound metabolized; 7: Compound metabolized

Would you mind giving Bacterial Biotransformation for every compound in the list below?
1. O=C(NCc1ccccc1)OCCO [BURAMATE]
2. CC(=O)OCC(=O)[C@@]12N=C(C)O[C@@H]1C[C@H]1[C@@H]3CCC4=CC(=O)C=C[C@]4(C)[C@H]3[C@@H](O)C[C@@]12C
3. CN1CCOC(c2ccccc2)c2ccccc2C1 (configuration not stated)
4. CCCCC1=NC2(CCCC2)C(=O)N1Cc1ccc(-c2ccccc2-c2nnn[nH]2)cc1
5. CCCC(=O)Nc1ccc(OCC(O)CNC(C)C)c(C(C)=O)c1 (configuration not stated)

1: Compound NOT metabolized; 2: Compound metabolized; 3: Compound NOT metabolized; 4: Compound metabolized; 5: Compound NOT metabolized
